Data provenance: patent US8664257B2

Readings of IC50 for the listed compounds
measured.target: Recombinant human cathepsin A (Homo sapiens)
Construct: Recombinant human cathepsin A (residues 29-480, with a C-terminal 10-His tag); 10-His (C); purchased R&D Systems 1049-SE
Sequence (P10619 29-312 limits assumed): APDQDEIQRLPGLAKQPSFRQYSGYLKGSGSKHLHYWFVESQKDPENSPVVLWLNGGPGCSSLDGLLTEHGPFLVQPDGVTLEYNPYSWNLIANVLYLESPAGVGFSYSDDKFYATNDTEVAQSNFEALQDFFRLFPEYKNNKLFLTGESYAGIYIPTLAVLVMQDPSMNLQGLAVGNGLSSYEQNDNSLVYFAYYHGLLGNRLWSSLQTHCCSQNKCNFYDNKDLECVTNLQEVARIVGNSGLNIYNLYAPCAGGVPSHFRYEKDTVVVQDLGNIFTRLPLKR
Sequence (P10619 327-480 limits assumed): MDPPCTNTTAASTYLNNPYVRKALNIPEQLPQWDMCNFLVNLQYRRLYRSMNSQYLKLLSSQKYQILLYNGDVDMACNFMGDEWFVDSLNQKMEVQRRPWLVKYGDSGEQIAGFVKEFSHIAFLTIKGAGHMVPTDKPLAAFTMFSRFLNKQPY
method.notes: Cathepsin A inhibitory activity
Format: biochemical
cond: read-out: Activity (2): Cathepsin A inhibitory activity, IC50 class

# count of solved cases: 3
QUERY: Reported IC50 for O=C(O)C[C@H](NC(=O)c1cc(O)n(-c2ccccc2Cl)n1)c1ccc(Cl)cc1 : what is it?
RESULT: 100 to 1000 nM

QUERY: What value of measured IC50 is listed for O=C(O)C[C@H](NC(=O)c1cc(O)n(-c2ccccc2F)n1)c1ccc(Cl)cc1Cl ?
RESULT: 100 to 1000 nM

QUERY: Could you tell me which IC50 is on file for CC(C)(C)C(=O)COc1cc(C(=O)N[C@@H](CC(=O)O)c2cccc(Cl)c2Cl)nn1-c1ccccc1F ?
RESULT: < 100 nM

Others:
QUERY: I would be grateful if you could share the reported IC50 for Cc1ccc(C)c(-n2nc(C(=O)NC3(CC(=O)O)CCCC3)cc2O)c1 .
RESULT: 1000 to 30000 nM

QUERY: # query: IC50 of entry Cc1cc(C)cc(-n2nc(C(=O)NC(CC(=O)O)c3ccccc3C)cc2O)c1 (centres unmarked)
RESULT: 1000 to 30000 nM

QUERY: I would be grateful if you could share the reported IC50 for O=C(O)CC(NC(=O)c1cc(O)n(-c2cccc(F)c2)n1)c1cccc(C(F)(F)F)c1 (centres unmarked) .
RESULT: 100 to 1000 nM

QUERY: Which value of IC50 has been reported for Cc1cc(F)ccc1C(CC(=O)O)NC(=O)c1cc(O)n(-c2ccc(F)cc2)n1 (centres unmarked) in the records?
RESULT: 100 to 1000 nM

QUERY: Fill in the blank: the reported IC50 of Cc1ccccc1[C@H](CC(=O)O)NC(=O)c1cc(O)n(-c2ccc(Cl)cn2)n1 is ____.
RESULT: 1000 to 30000 nM
